Taken from patent US9809604B2.

# TGT: DGAT1 (Homo sapiens, UniProt O75907)
# METHOD_DESCRIPTION: Human DGAT1 IC50 enzyme assay (Flashplate, 14C-labeled acyl-CoA)
# Format: biochemical
# Set-up: made in house
# CONDITION_PARAMETERS: second determination; read-out: hDGAT1 IC50(nM) Second

# COMPOUND, TGT, IC50
measured = [
    ("CC(C)(Cn1cc(-c2ccc(N3CCOc4ncnc(N)c4C3=O)cc2Cl)cn1)C(=O)O", "DGAT1 (Homo sapiens, UniProt O75907)", "25.3 nM"),
    ("CC(C)CN1CCN(c2ccc(N3CCOc4ncnc(N)c4C3=O)cc2Cl)C1=O", "DGAT1 (Homo sapiens, UniProt O75907)", "32.9 nM"),
    ("Nc1ncnc2c1C(=O)N(c1ccc3c(c1)CCC(OCC(F)(F)F)C3)CCO2 (single isomer, unassigned; peak1) [Compound 105 (peak1)]", "DGAT1 (Homo sapiens, UniProt O75907)", "43.3 nM"),
]

====

# TGT: DGAT1 (Homo sapiens)
# Sequence (O75907 1-488): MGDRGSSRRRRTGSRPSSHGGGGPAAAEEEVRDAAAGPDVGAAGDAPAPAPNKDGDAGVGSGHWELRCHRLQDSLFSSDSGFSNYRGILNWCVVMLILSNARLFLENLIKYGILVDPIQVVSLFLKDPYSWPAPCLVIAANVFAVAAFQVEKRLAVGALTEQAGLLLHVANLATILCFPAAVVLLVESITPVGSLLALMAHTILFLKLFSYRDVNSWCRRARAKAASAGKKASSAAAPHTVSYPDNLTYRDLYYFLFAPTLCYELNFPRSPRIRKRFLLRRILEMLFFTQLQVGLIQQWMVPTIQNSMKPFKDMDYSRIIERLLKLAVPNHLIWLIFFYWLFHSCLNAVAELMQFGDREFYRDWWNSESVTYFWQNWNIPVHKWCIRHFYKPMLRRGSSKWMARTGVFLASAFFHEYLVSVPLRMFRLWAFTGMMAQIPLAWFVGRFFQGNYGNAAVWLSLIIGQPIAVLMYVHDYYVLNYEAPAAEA
# METHOD_DESCRIPTION: Human DGAT1 IC50 enzyme assay (Flashplate, 14C-labeled acyl-CoA)
# Type: biochemical
# Set-up: made in house
# CONDITION_PARAMETERS: average of first and second; read-out: hDGAT1 IC50(nM) Average
READOUT_NAME: IC50 (nM)

# COMPOUND, READOUT_NAME, ENDPOINT_UNIT, RESULT_VALUE
rows = [
    ("Cc1cc(N2CCOc3ncnc(N)c3C2=O)ccc1-c1cnn(CC(=O)O)c1 [Compound 57]", "IC50", "nM", 91.9),
    ("Cc1cc(N2CCOc3ncnc(N)c3C2=O)cc(Cl)c1N1CCN(CC(=O)O)C1=O [Compound 27]", "IC50", "nM", 62.4),
    ("Cc1cc(N2CCOc3ncnc(N)c3C2=O)cc(C)c1-c1cnn(CC(=O)O)c1 [Compound 67]", "IC50", "nM", 53.2),
    ("Nc1ncnc2c1C(=O)N(c1ccc(-c3cnn(CC4CC4)c3)c(Cl)c1)CCO2 [Compound 87]", "IC50", "nM", 46.7),
    ("Cc1cc(N2CCOc3ncnc(N)c3C2=O)cc(C)c1-c1cn(CC(=O)O)nc1C [Compound 73]", "IC50", "nM", 34.4),
    ("Cc1cc(N2CCOc3ncnc(N)c3C2=O)cc(C)c1-c1cn(CC(C)(C)F)nc1C [Compound 97]", "IC50", "nM", 26.9),
    ("Cc1cc(N2CCOc3ncnc(N)c3C2=O)cc(F)c1N1CCN(CC(=O)O)C1=O [Compound 26]", "IC50", "nM", 50.6),
    ("Nc1ncnc2c1C(=O)N(c1ccc(-c3cn(CCC(=O)O)nc3C(F)(F)F)cc1)CCO2 [Compound 62]", "IC50", "nM", 68.2),
    ("CC(C(=O)O)n1cc(-c2ccc(N3CCOc4ncnc(N)c4C3=O)cc2Cl)cn1 (stereo not drawn) [Compound 34]", "IC50", "nM", 55.8),
    ("Cc1cc(N2CCOc3ncnc(N)c3C2=O)cc(C)c1-c1cn(CC(F)F)nc1C [Compound 43]", "IC50", "nM", 17.6),
    ("CC(C)C(C(=O)O)n1cc(-c2ccc(N3CCOc4ncnc(N)c4C3=O)cc2Cl)cn1 (stereo not drawn) [Compound 65]", "IC50", "nM", 41.5),
    ("CC(C)(F)CN1CCN(c2ccc(N3CCOc4ncnc(N)c4C3=O)cc2Cl)C1=O [Compound 31]", "IC50", "nM", 23.5),
    ("CC(C)(F)Cn1ccc(-c2ccc(N3CCOc4ncnc(N)c4C3=O)cc2Cl)n1 [Compound 95]", "IC50", "nM", 42.5),
    ("CCc1cc(N2CCOc3ncnc(N)c3C2=O)cc(CC)c1N1CCN(CC(=O)O)C1=O [Compound 19]", "IC50", "nM", 101),
    ("NC(=O)Cn1cc(-c2ccc(N3CCOc4ncnc(N)c4C3=O)cc2Cl)cn1 [Compound 46]", "IC50", "nM", 95.6),
]

====

# TGT: DGAT1 (Homo sapiens, UniProt O75907)
# METHOD_DESCRIPTION: Human DGAT1 IC50 enzyme assay (Flashplate, 14C-labeled acyl-CoA)
# Format: biochemical
# Design: made in house
# CONDITION_PARAMETERS: first determination; read-out: hDGAT1 IC50(nM) First
API: label(entry) gives condition met if the entry's IC50 is strictly smaller than 40 nM; on equality or larger values it gives condition not met.

# COMPOUND, TGT, CATEGORY_LABEL
records = [
    ("CCc1cc(N2CCOc3ncnc(N)c3C2=O)ccc1-c1cnn(CC(C)C)c1", "DGAT1 (Homo sapiens, UniProt O75907)", "condition not met"),
    ("Nc1ncnc2c1C(=O)N(c1ccc(N3CCN(CC(=O)O)C3=O)c(OC(F)(F)F)c1)CCO2", "DGAT1 (Homo sapiens, UniProt O75907)", "condition not met"),
    ("Cc1cc(N2CCOc3ncnc(N)c3C2=O)cc(F)c1N1CCN(CC(=O)O)C1=O", "DGAT1 (Homo sapiens, UniProt O75907)", "condition not met"),
    ("Cc1cc(N2CCOc3ncnc(N)c3C2=O)cc(C)c1-c1cnn(CC(=O)O)c1", "DGAT1 (Homo sapiens, UniProt O75907)", "condition not met"),
    ("Cc1cc(N2CCOc3ncnc(N)c3C2=O)cc(C)c1-c1cnn(C(C)(C)C(=O)O)c1", "DGAT1 (Homo sapiens, UniProt O75907)", "condition not met"),
    ("CC(C)(F)Cn1ccc(-c2ccc(N3CCOc4ncnc(N)c4C3=O)cc2Cl)n1", "DGAT1 (Homo sapiens, UniProt O75907)", "condition met"),
    ("Cc1cc(N2CCOc3ncnc(N)c3C2=O)cc(C)c1-c1cn(CC(=O)O)nc1C", "DGAT1 (Homo sapiens, UniProt O75907)", "condition met"),
    ("Nc1ncnc2c1C(=O)N(c1ccc(-c3cn(CCC(=O)O)nc3C(F)(F)F)cc1)CCO2", "DGAT1 (Homo sapiens, UniProt O75907)", "condition not met"),
    ("CC(C)Cn1cc(-c2ccc(N3C[C@@H](C)Oc4ncnc(N)c4C3=O)cc2Cl)cn1", "DGAT1 (Homo sapiens, UniProt O75907)", "condition met"),
    ("Nc1ncnc2c1C(=O)N(c1ccc(N3CCN(CC4CC4)C3=O)c(Cl)c1)CCO2", "DGAT1 (Homo sapiens, UniProt O75907)", "condition met"),
    ("O=C(O)C[C@H]1CC[C@H](c2ccc(-c3ccc(Nc4ccc(C(F)(F)F)nc4)cn3)cc2)CC1 [Pradigastat, reference compound]", "DGAT1 (Homo sapiens, UniProt O75907)", "condition not met"),
    ("Nc1ncnc2c1C(=O)N(c1ccc3c(c1)CCC(OCC(F)(F)F)C3)CCO2 (single isomer, unassigned) [Compound 108 (peak2)]", "DGAT1 (Homo sapiens, UniProt O75907)", "condition not met"),
    ("NC(=O)Cn1cc(-c2ccc(N3CCOc4ncnc(N)c4C3=O)cc2Cl)cn1", "DGAT1 (Homo sapiens, UniProt O75907)", "condition not met"),
]

====

# TGT: DGAT1 (Homo sapiens, UniProt O75907)
# Sequence (O75907 1-488): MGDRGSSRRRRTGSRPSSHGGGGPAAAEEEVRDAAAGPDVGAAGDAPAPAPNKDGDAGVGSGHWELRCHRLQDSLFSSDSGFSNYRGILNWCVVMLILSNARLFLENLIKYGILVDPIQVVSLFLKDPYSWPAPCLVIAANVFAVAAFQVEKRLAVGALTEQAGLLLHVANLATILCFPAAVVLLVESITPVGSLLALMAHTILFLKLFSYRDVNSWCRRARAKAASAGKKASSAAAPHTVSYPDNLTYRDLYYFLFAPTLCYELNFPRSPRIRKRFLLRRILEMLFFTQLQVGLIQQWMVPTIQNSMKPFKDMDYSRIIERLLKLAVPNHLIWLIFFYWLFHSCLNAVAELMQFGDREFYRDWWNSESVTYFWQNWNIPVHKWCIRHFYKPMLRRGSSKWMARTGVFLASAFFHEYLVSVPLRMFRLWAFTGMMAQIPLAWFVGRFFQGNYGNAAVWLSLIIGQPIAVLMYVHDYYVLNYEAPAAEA
# METHOD_DESCRIPTION: Human DGAT1 IC50 enzyme assay (Flashplate, 14C-labeled acyl-CoA)
# Format: biochemical
# Design: made in house
# CONDITION_PARAMETERS: second determination; read-out: hDGAT1 IC50(nM) Second

# MOLECULE, IC50
records = [
    ("Nc1ncnc2c1C(=O)N(c1ccc(-c3cn(CC(=O)O)nc3C(F)(F)F)cc1)CCO2", "124 nM"),
    ("Cc1cc(N2CCOc3ncnc(N)c3C2=O)cc(C)c1-c1cnn(C(C)(C)C(=O)O)c1", "38.2 nM"),
    ("CC(C)(F)Cn1cc(-c2ccc(N3CCOc4ncnc(N)c4C3=O)cc2Cl)cn1", "27.5 nM"),
    ("Cc1cc(N2CCOc3ncnc(N)c3C2=O)cc(C)c1-c1cn(CCC(=O)O)nc1C", "38.4 nM"),
    ("CC(C)(F)CN1CCN(c2ccc(N3CCOc4ncnc(N)c4C3=O)cc2Cl)C1=O", "23.4 nM"),
    ("Nc1ncnc2c1C(=O)N(c1ccc(N3CCN(CC(=O)O)C3=O)c(F)c1)CCO2", "41.6 nM"),
    ("CCc1cc(N2CCOc3ncnc(N)c3C2=O)ccc1N1CCN(CC(=O)O)C1=O", "69 nM"),
    ("Cc1cc(N2CCOc3ncnc(N)c3C2=O)cc(C)c1-c1cn(CC2(C)COC2)nc1C", "109 nM"),
    ("Cc1cc(N2CCOc3ncnc(N)c3C2=O)cc(C)c1-c1cn(CC(F)F)nc1C", "16.7 nM"),
    ("CCc1cc(N2CCOc3ncnc(N)c3C2=O)cc(C)c1N1CCN(CC(=O)O)C1=O", "32.9 nM"),
    ("Cc1cc(N2CCOc3ncnc(N)c3C2=O)cc(Cl)c1N1CCN(CC(=O)O)C1=O", "55.7 nM"),
    ("CC(C)C(C(=O)O)n1cc(-c2ccc(N3CCOc4ncnc(N)c4C3=O)cc2Cl)cn1 (stereo not shown)", "44.1 nM"),
    ("Cc1cc(N2CCOc3ncnc(N)c3C2=O)ccc1-c1cnn(C(C(=O)O)C(C)C)c1 (stereo not shown)", "106 nM"),
    ("O=C(O)C[C@H]1CC[C@H](c2ccc(-c3ccc(Nc4ccc(C(F)(F)F)nc4)cn3)cc2)CC1 [Pradigastat, reference compound]", "29.7 nM"),
    ("Cc1cc(N2CCOc3ncnc(N)c3C2=O)cc(C)c1-c1cn(CC(C)(C)F)nc1C", "23.4 nM"),
    ("CCn1cc(-c2ccc(N3CCOc4ncnc(N)c4C3=O)cc2Cl)cn1", "57.8 nM"),
    ("Cc1nn(CC(=O)O)cc1-c1ccc(N2CCOc3ncnc(N)c3C2=O)cc1Cl", "21 nM"),
    ("Nc1ncnc2c1C(=O)N(c1ccc(N3CCN(CC(=O)O)C3=O)c(Cl)c1)CCO2", "43 nM"),
    ("COC(C)(C)Cn1cc(-c2ccc(N3CCOc4ncnc(N)c4C3=O)cc2Cl)cn1", "55.1 nM"),
    ("Nc1ncnc2c1C(=O)N(c1ccc(-c3cnn(CCC(=O)O)c3)c(Cl)c1)CCO2", "26.7 nM"),
    ("CC(C)(CO)Cn1cc(-c2ccc(N3CCOc4ncnc(N)c4C3=O)cc2Cl)cn1", "30.5 nM"),
    ("CC(C)(O)Cn1cc(-c2ccc(N3CCOc4ncnc(N)c4C3=O)cc2Cl)cn1", "44.2 nM"),
    ("CN(C)C(=O)C(C)(C)Cn1cc(-c2ccc(N3CCOc4ncnc(N)c4C3=O)cc2Cl)cn1", "90.1 nM"),
    ("Cc1cc(N2CCOc3ncnc(N)c3C2=O)cc(C)c1-c1cnn(CCC(=O)O)c1", "13.2 nM"),
    ("Nc1ncnc2c1C(=O)N(c1ccc3c(c1)CCC(OCC(F)(F)F)C3)CCO2 (single isomer, unassigned) [Compound 108 (peak2)]", "48.8 nM"),
]
